Recorded Monochoria vaginalis herbicidal efficacy (growth inhibition level) values for a group of molecules are listed next.
System: Monochoria vaginalis
experiment description: Paddy herbicidal activity test
Type: in vivo
experimental setup: 1g a.i./10a; irrigated paddy pot, 30 days
readout type: Monochoria vaginalis herbicidal efficacy (growth inhibition level)

{"columns": ["molecule", "data value"],
 "data": [
  ["C=C(C)CNc1c([N+](=O)[O-])cnn1-c1nn2c(c1Cl)CCCC2 [Compound 31]", "9 (9: 90% to less than 100%)"],
  ["C#CCNc1c(C#N)cnn1-c1nn2c(c1Cl)CCCC2 [Control agent 4.85, 4.156, reference compound]", "1 (1: 10% to less than 20%)"],
  ["N#Cc1cnn(-c2nn3c(c2Br)CCCC3)c1NCC(Cl)=CCl (mixture of isomers) [Compound 46]", "7 (7: 70% to less than 80%)"],
  ["CC=CCNc1c([N+](=O)[O-])cnn1-c1nn2c(c1Br)CCCC2 (mixture of isomers) [Compound 57]", "8 (8: 80% to less than 90%)"]
]}

###

Tested on: Monochoria vaginalis
experiment description: Paddy herbicidal activity test
Type: in vivo
experimental setup: 1g a.i./10a; irrigated paddy pot, 30 days
Description: Rice paddy soil was filled into a 1/10000 are pot followed by the addition of suitable amounts of water and chemical fertilizer, kneading, seeding with Echinochloa crus-galli, Monochoria vaginalis and Scirpus juncoides and maintaining in an irrigated state at a water depth of 3 cm. […]
Recorded Monochoria vaginalis herbicidal efficacy (growth inhibition level) values for a group of molecules are listed next.
readout type: Monochoria vaginalis herbicidal efficacy (growth inhibition level)

{"columns": ["molecule", "data value"],
 "data": [
  ["C=CCCN(C(=O)C(F)(F)F)c1c(C#N)cnn1-c1nn2c(c1Cl)CCCC2", "8 (8: 80% to less than 90%)"],
  ["C=CCN(C(=O)C(F)(F)F)c1c(C#N)cnn1-c1nn2c(c1Cl)CCCC2", "8 (8: 80% to less than 90%)"],
  ["C#CCN(C(=O)C(F)(F)F)c1c(C#N)cnn1-c1nn2c(c1Cl)CCCC2 [Control agent 4.239, reference compound]", "1 (1: 10% to less than 20%)"],
  ["C=C(Cl)CNc1c([N+](=O)[O-])cnn1-c1nn2c(c1Cl)CCCC2", "9 (9: 90% to less than 100%)"]
]}

###

Test system: Monochoria vaginalis
experiment description: Paddy herbicidal activity test
Format: in vivo
experimental setup: 1g a.i./10a; irrigated paddy pot, 30 days
readout type: Monochoria vaginalis herbicidal efficacy (growth inhibition level)

{"columns": ["compound", "data value"],
 "data": [
  ["CC=CCNc1c([N+](=O)[O-])cnn1-c1nn2c(c1Cl)CCCC2 (mixture of isomers)", "9 (9: 90% to less than 100%)"],
  ["C=CCN(CC)c1c(C#N)cnn1-c1nn2c(c1Cl)CCCC2 [Control agent 4.75, reference compound]", "4 (4: 40% to less than 50%)"],
  ["N#Cc1cnn(-c2nn3c(c2Br)CCCC3)c1N(C/C=C\\Cl)C(=O)C(F)(F)F", "7 (7: 70% to less than 80%)"],
  ["C=CCCN(C(=O)C(F)(F)F)c1c(C#N)cnn1-c1nn2c(c1Br)CCCC2", "7 (7: 70% to less than 80%)"],
  ["C=CCN(C(=O)C(F)(F)F)c1c(C#N)cnn1-c1nn2c(c1Br)CCCC2", "7 (7: 70% to less than 80%)"],
  ["CC(C)=CCN(C(=O)C(F)(F)F)c1c(C#N)cnn1-c1nn2c(c1Cl)CCCC2", "9 (9: 90% to less than 100%)"],
  ["CC(C)=CCNc1c(C#N)cnn1-c1nn2c(c1Cl)CCCC2", "8 (8: 80% to less than 90%)"],
  ["CC=CCCN(C(=O)C(F)(F)F)c1c(C#N)cnn1-c1nn2c(c1Cl)CCCC2 (mixture of isomers)", "8 (8: 80% to less than 90%)"],
  ["C=CCN(C(=O)C(F)(F)C(F)(F)F)c1c(C#N)cnn1-c1nn2c(c1Cl)CCCC2", "8 (8: 80% to less than 90%)"],
  ["N#Cc1cnn(-c2nn3c(c2Cl)CCCC3)c1N(CC(Cl)=CCl)C(=O)C(F)(F)F (mixture of isomers)", "8 (8: 80% to less than 90%)"],
  ["N#Cc1cnn(-c2nn3c(c2Cl)CCCC3)c1NCCC(F)=C(F)F", "7 (7: 70% to less than 80%)"],
  ["CC=CCN(C(=O)C(F)(F)F)c1c([N+](=O)[O-])cnn1-c1nn2c(c1Cl)CCCC2 (mixture of isomers)", "8 (8: 80% to less than 90%)"]
]}
